# measured_target: Ras-related C3 botulinum toxin substrate 1 (Homo sapiens)
# test_details: Inhibition of PDGF-BB-stimulated Rac1 activity in human aortic smooth muscle cells assessed as reduction of Rac1GTP level after 4 hrs by G-LISA
measured_quantity: IC50 (µM)
Report only the number, with the unit µM understood.

Which value of IC50 has been reported for COc1cc2c(C#N)c(N3CCN(c4ccccc4OC)CC3)nc(N)c2c(N)n1 in the records?
46.1
